# target: Pdr5 I685A (Saccharomyces cerevisiae, UniProt P33302, I685A)
# Sequence (P33302 whole entry I685A): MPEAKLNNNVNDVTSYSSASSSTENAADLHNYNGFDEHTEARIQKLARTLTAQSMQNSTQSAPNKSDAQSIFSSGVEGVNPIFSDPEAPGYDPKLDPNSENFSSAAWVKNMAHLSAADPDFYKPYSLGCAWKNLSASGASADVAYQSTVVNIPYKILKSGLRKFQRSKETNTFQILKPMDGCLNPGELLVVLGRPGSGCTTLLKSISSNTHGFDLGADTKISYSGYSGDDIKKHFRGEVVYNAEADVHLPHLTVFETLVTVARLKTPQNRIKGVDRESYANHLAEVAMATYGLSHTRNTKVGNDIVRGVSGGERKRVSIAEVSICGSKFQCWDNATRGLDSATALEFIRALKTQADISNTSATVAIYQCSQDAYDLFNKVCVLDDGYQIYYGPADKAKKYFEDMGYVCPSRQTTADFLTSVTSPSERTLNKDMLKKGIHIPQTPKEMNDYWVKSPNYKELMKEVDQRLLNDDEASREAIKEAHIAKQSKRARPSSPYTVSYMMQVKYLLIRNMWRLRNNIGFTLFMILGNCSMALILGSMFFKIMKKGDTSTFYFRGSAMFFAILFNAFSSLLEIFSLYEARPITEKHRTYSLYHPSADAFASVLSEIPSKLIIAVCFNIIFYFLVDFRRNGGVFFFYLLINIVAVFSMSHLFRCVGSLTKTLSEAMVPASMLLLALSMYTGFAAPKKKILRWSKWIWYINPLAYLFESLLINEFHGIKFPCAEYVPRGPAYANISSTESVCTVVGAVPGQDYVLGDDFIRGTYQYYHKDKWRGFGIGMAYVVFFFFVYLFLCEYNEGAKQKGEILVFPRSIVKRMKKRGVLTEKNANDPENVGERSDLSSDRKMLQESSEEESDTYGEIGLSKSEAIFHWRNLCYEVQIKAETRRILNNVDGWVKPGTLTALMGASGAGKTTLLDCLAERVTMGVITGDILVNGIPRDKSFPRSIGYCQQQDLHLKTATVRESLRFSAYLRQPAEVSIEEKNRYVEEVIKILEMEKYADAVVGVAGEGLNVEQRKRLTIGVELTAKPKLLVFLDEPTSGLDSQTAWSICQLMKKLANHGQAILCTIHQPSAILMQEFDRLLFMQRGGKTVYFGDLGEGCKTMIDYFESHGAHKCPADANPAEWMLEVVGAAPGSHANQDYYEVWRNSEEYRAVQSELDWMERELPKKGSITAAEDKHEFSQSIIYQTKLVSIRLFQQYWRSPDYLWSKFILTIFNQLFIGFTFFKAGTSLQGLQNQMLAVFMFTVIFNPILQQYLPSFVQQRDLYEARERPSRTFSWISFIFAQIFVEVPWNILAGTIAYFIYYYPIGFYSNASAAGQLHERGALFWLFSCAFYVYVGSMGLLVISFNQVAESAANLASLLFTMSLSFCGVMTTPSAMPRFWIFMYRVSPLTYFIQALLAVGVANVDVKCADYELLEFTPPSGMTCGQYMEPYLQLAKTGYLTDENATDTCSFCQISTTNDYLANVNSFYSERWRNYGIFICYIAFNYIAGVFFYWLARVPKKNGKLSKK
# protocol.summary: biochemical
readout.type: IC50 (µM)

molecule | target | unit.of.measure | assay.value
c1ccc(-c2ccc(C(c3ccccc3)n3ccnc3)cc2)cc1 (stereo not shown) | Pdr5 I685A (Saccharomyces cerevisiae, UniProt P33302, I685A) | µM | 2.58

* * *

# target: Pdr5 V1372A (Saccharomyces cerevisiae, UniProt P33302, V1372A)
# Sequence (P33302 whole entry V1372A): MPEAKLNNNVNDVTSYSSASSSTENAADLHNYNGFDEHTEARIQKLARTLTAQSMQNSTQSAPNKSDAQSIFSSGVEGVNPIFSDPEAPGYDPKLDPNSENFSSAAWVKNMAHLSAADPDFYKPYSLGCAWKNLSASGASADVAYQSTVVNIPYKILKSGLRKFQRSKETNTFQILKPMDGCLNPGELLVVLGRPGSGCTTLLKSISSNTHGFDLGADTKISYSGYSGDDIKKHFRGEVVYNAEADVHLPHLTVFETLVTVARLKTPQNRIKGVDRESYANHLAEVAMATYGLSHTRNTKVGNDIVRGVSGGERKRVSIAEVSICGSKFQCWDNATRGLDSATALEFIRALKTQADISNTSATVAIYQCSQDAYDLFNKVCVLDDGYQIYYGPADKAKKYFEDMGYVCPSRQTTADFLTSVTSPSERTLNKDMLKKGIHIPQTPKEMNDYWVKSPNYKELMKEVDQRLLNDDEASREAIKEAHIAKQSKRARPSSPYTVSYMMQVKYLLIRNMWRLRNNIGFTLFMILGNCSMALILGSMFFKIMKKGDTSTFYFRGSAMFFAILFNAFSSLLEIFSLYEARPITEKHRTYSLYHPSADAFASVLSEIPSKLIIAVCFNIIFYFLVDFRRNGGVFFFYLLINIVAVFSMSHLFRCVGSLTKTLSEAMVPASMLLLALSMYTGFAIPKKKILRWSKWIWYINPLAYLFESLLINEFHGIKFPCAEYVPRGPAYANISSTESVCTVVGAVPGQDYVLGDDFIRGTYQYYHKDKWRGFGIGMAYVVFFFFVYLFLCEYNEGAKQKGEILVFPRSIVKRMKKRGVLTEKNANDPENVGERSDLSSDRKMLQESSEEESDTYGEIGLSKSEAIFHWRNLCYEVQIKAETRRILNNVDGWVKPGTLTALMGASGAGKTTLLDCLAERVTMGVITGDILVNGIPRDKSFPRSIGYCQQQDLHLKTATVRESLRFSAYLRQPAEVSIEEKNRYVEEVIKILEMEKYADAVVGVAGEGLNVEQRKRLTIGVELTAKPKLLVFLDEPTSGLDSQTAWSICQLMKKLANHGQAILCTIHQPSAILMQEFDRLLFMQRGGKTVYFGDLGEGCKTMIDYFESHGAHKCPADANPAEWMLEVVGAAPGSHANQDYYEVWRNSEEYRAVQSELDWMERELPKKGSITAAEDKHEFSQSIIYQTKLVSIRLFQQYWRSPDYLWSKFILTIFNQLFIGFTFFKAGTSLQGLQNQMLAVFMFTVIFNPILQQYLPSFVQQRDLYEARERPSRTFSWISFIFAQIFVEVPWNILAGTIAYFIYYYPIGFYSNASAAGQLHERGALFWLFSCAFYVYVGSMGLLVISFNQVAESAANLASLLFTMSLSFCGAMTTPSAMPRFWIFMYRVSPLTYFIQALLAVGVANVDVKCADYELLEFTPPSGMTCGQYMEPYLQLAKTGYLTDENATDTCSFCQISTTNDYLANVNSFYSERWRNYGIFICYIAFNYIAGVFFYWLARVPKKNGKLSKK
# protocol.summary: biochemical
pIC50: −log10 of the molar value.
readout.type: pIC50

compound | target | assay.value
c1ccc(-c2ccc(C(c3ccccc3)n3ccnc3)cc2)cc1 (stereo not shown) | Pdr5 V1372A (Saccharomyces cerevisiae, UniProt P33302, V1372A) | 5.48
